experimentalProtocol: Dog pharmacokinetic study (iv and sc, solution vehicles)
Format: in vivo
measurementContext: male, beagle, plasma, sc, 67 ug/kg; dog, subcutaneous 67 μg/kg, propylene glycol:phosphate buffer (50:50)
Where a SMILES comes first, the peptide text is derived from it. [ ]: non-standard residue; d: D form. Ala(6-(2-MePh)pyridin-3-yl) = Cc1ccccc1-c1ccc(C[C@H](N)C(=O)O)cn1; Bip(2'-Et-4'-OMe) = CCc1cc(OC)ccc1-c1ccc(C[C@H](N)C(=O)O)cc1; αMePhe(2-F) = C[C@](N)(Cc1ccccc1F)C(=O)O; Aib = CC(C)(N)C(=O)O
testReadout: Tmax (h)
# value in h; strip the unit string

// sample CCc1cc(OC)ccc1-c1ccc(C[C@H](NC(=O)[C@H](CC(=O)O)NC(=O)[C@H](CO)NC(=O)[C@@H](NC(=O)[C@](C)(Cc2ccccc2F)NC(=O)[C@@H](NC(=O)CNC(=O)[C@H](CCC(=O)O)NC(=O)C(C)(C)NC(=O)[C@@H](N)Cc2c[nH]cn2)[C@@H](C)O)[C@@H](C)O)C(=O)N[C@@H](Cc2ccc(-c3ccccc3C)nc2)C(N)=O)cc1 [SEQ ID NO: 9] (H-H[Aib]EGT[αMePhe(2-F)]TSD[Bip(2'-Et-4'-OMe)][Ala(6-(2-MePh)pyridin-3-yl)]-NH2) , its Tmax was 5
